Reference for the values: patent US8003660B2

Listed here: items and their measured pEC50.
measurement.target: M1 muscarinic receptor (Homo sapiens)
Sequence (P11229 whole entry): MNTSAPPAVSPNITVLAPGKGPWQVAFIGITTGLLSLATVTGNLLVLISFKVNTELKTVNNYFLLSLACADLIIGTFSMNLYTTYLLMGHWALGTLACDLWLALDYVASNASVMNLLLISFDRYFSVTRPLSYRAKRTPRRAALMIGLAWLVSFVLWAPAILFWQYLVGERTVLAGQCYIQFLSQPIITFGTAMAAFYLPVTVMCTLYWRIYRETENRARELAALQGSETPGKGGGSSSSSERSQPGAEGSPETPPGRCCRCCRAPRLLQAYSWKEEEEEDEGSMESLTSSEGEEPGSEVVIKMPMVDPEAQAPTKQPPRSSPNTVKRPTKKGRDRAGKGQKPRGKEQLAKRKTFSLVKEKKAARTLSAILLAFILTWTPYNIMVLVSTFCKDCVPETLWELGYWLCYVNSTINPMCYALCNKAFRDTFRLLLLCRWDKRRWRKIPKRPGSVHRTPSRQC
measurement.notes: Functional mobilization of intracellular calcium (FLIPR) in CHO cells expressing M1
experimental.context: CHO cells expressing M1, FLIPR calcium
pEC50: −log10 of the molar value.

>  <compound>
CCN(C(=O)C1CCC(=O)C1)[C@H]1CCC2(CCN(CCC(C)(C)C)CC2)c2ccccc21 (stereo partly drawn)

>  <measurement.target>
M1 muscarinic receptor (Homo sapiens)

>  <parameter>
pEC50

>  <result>
5.30 to 5.70

$$$$
>  <compound>
CCCC(CCC)N1CCC2(CC[C@H](NC(=O)C3CC3)c3ccccc32)CC1

>  <measurement.target>
M1 muscarinic receptor (Homo sapiens)

>  <parameter>
pEC50

>  <result>
< 5.30

$$$$
>  <compound>
CCN(C(=O)C1CCOC(C)(C)C1)[C@H]1CCC2(CCN(CCC(C)(C)C)CC2)c2ccccc21 (stereo partly drawn)

>  <measurement.target>
M1 muscarinic receptor (Homo sapiens)

>  <parameter>
pEC50

>  <result>
< 5.30

$$$$
>  <compound>
CC(C)(C)CCN1CCC2(CC[C@@H](NC(=O)CC3CCOCC3)c3ccccc32)CC1

>  <measurement.target>
M1 muscarinic receptor (Homo sapiens)

>  <parameter>
pEC50

>  <result>
< 5.30

$$$$

Request: Hi! What's the reported pEC50 for CC(C)CCN1CCC2(CC[C@H](NS(C)(=O)=O)c3ccccc32)CC1 on M1 muscarinic receptor (Homo sapiens)?
Response: > 5.70

Request: Hi! What's the reported pEC50 for CC(=O)N[C@H]1CCC2(CCN(CC(C)(C)C)CC2)c2ccccc21 on M1 muscarinic receptor (Homo sapiens)?
Response: > 5.70

Request: Hi! What's the reported pEC50 for CCCN1CCC2(CC[C@H](NC(C)=O)c3ccccc32)CC1 on M1 muscarinic receptor (Homo sapiens)?
Response: < 5.30

Request: Hi! What's the reported pEC50 for Cn1cncc1C(=O)N[C@@H]1CCC2(CCN(CCC(C)(C)C)CC2)c2ccccc21 on M1 muscarinic receptor (Homo sapiens)?
Response: 5.30 to 5.70

Request: Hi! What's the reported pEC50 for CC(C)(C)CCN1CCC2(CC[C@H](NC(=O)CCOC(C)(C)C)c3ccccc32)CC1 on M1 muscarinic receptor (Homo sapiens)?
Response: > 5.70

###

Listed here: items and their measured Emax.
measurement.target: M1 muscarinic receptor (Homo sapiens)
Construct: expressed in transfected cells; host or cells: CHO (M1-CHO)
measurement.notes: Functional mobilization of intracellular calcium (FLIPR) in CHO cells expressing M1
Assay type: cell-based
experimental.context: CHO; 100% = maximum response obtained with the Carbachol control; read-out: M1 Efficacy

>  <molecule>
CC(C)(C)CCN1CCC2(CC[C@@H](NC(=O)Cc3cccnc3)c3ccccc32)CC1 [compound 134]

>  <Emax>
< 25%

$$$$
>  <molecule>
CC(C)(C)CCN1CCC2(CC[C@@H](NC(=O)Cc3cccnc3)c3ccc(F)cc32)CC1 [compound 65]

>  <Emax>
25 to 100%

$$$$
>  <molecule>
CCCN1CCC2(CC[C@H](NC(C)=O)c3ccccc32)CC1 [compound 95]

>  <Emax>
25 to 100%

$$$$

Request: Hi! What's the reported Emax for COC(=O)CCCN1CCC2(CC[C@H](NC(C)=O)c3ccccc32)CC1 [compound 16] on M1 muscarinic receptor (Homo sapiens)?
Response: 25 to 100%

Request: Hi! What's the reported Emax for C[C@H](C(=O)N[C@@H]1CCC2(CCN(CCC(C)(C)C)CC2)c2ccccc21)N1CCCCC1=O [compound 113] on M1 muscarinic receptor (Homo sapiens)?
Response: < 25%

Request: Hi! What's the reported Emax for CC(=O)N[C@H](C)C(=O)N[C@@H]1CCC2(CCN(CCC(C)(C)C)CC2)c2cc(F)ccc21 [compound 163] on M1 muscarinic receptor (Homo sapiens)?
Response: 25 to 100%

Request: Hi! What's the reported Emax for CCOCCC(=O)N[C@@H]1CCC2(CCN(CCC(C)(C)C)CC2)c2ccccc21 [compound 21] on M1 muscarinic receptor (Homo sapiens)?
Response: 25 to 100%

Request: Hi! What's the reported Emax for CC(C)(C)CCN1CCC2(CC[C@@H](NC(=O)[C@@H]3CCC(=O)N3)c3ccc(F)cc32)CC1 [compound 75] on M1 muscarinic receptor (Homo sapiens)?
Response: 25 to 100%

Request: Hi! What's the reported Emax for Cc1cc(C(=O)N[C@H]2CCC3(CCN(CCC(C)(C)C)CC3)c3ccccc32)nn1C [compound 151] on M1 muscarinic receptor (Homo sapiens)?
Response: 25 to 100%
